Let's go through some pIC50 measurements on RNR (RNR1:RNR2 1:1) (Homo sapiens) together.
Sequence (P23921 whole entry): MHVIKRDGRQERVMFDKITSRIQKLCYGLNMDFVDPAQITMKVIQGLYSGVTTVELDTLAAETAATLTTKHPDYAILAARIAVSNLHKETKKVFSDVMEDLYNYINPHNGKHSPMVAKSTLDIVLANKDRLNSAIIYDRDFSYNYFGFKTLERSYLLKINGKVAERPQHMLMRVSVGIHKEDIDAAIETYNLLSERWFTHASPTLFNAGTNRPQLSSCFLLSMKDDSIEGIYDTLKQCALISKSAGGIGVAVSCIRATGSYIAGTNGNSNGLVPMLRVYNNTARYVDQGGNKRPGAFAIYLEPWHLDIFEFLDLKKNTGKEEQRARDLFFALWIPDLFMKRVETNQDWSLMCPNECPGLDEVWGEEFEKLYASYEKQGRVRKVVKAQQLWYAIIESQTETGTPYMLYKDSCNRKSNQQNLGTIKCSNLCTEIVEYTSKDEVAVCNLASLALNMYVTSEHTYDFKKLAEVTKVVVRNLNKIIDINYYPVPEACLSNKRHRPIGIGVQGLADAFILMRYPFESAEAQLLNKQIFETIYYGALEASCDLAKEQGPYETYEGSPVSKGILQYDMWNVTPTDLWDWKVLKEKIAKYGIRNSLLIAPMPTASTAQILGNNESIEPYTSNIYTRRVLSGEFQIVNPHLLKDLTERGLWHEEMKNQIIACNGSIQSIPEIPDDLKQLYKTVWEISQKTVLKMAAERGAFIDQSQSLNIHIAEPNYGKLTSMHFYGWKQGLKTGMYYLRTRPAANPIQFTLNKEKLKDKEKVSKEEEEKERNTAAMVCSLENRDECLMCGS
pIC50: −log10 of the molar value.

Cc1ccc(F)c([C@H](C)[C@H](NS(=O)(=O)N2CCC3(CC2)CC(F)(F)C3)c2n[nH]c(=O)o2)c1C | 5.00 to 6.00
Cc1ccc(F)c([C@@H](C)[C@H](NS(=O)(=O)N2CCCC(C)(C)C2)c2n[nH]c(=O)o2)c1C | 5.00 to 6.00
CC(=O)N(C)C1CCN(S(=O)(=O)N[C@H](c2n[nH]c(=O)o2)C(C)c2c(F)ccc(C)c2C)CC1 (stereo partly shown) | 5.00 to 6.00

Query (molecule): Cc1ccc(F)c(C(C)[C@H](NS(=O)(=O)N2CCC3(CC2)COC(=O)O3)c2n[nH]c(=O)o2)c1C (stereo partly shown) ; field requested: pIC50
4.00 to 5.00

Similarly, Cc1ccc(F)c(C(C)[C@H](NS(=O)(=O)N2CCN(CC(F)F)CC2)c2n[nH]c(=O)o2)c1C (stereo partly shown) ?
5.00 to 6.00

Also check `Cc1ccc(F)c([C@@H](C)[C@H](NS(=O)(=O)N2CCc3ccc(Cl)c(Cl)c3C2)c2n[nH]c(=O)o2)c1C`
6.00 to 7.00

Moving on to Cc1ccc(F)c(C(C)[C@H](NS(=O)(=O)N2CCCCC2C#N)c2n[nH]c(=O)o2)c1C (stereo partly shown)
5.00 to 6.00
